- System: Yap1 mRNA
- assay-name: Antisense inhibition of human Yap1 in A-431 cells by cEt gapmers, single dose (Example 4, RTS4814)
- Format: cell-based
- condition-info: Table 14; A-431 cells, 5,000 cells per well, free uptake, 2,000 nM, approximately 48 hours; RTS4814; normalized to RIBOGREEN; Yap1 mRNA relative to untreated control; * = targets amplicon region of primer probe set
Strand notation (5' to 3'): a small letter for the sugar, then the base; units joined by * are phosphorothioate-linked, units joined directly phosphodiester-linked; [ ] holds rarer units or linkages, { } end groups; capitals alone tell only the bases. k = constrained ethyl (cEt); [5mC] = 5-methylcytosine; d = 2'-deoxy (DNA)
In this section, each of the substances is paired with its reported YAP1 (% UTC).
# output: bare number, implied unit % UTC

Consider the following illustrative entries.
1075104 (antisense kA*kT*kT*dA*dT*dA*dA*dG*dG*dT*d[5mC]*d[5mC]*dT*kA*k[5mC]*kA) [Compound 1075104] | 67
1074912 (antisense kA*kT*k[5mC]*d[5mC]*d[5mC]*dG*dA*dG*dT*dG*dG*dG*d[5mC]*kT*kA*kA) [Compound 1074912] | 85
1076000 (k[5mC]*k[5mC]*kT*dA*dA*dT*dA*dT*dG*dA*d[5mC]*dT*d[5mC]*k[5mC]*kT*kT; antisense) [Compound 1076000] | 4
1076320 (k[5mC]*kA*kT*dT*dA*dA*d[5mC]*d[5mC]*dT*d[5mC]*dA*d[5mC]*d[5mC]*k[5mC]*kA*kT; antisense) [Compound 1076320] | 52
1075552 (kG*kA*kT*dT*dA*dT*dA*dA*d[5mC]*dA*dT*dG*d[5mC]*kT*kG*kT; antisense) [Compound 1075552] | 74

Inquiry: Can you share its YAP1 (% UTC)? I mean this substance: 1076544 (antisense kG*kA*k[5mC]*d[5mC]*dA*dA*d[5mC]*d[5mC]*dT*d[5mC]*d[5mC]*d[5mC]*d[5mC]*kT*kT*kG) [Compound 1076544]
Reply text: 89

Inquiry: I am curious: what YAP1 (% UTC) value has been reported for 1075008 (antisense kT*kA*kA*dT*d[5mC]*dG*dA*dA*d[5mC]*dA*dT*dT*dG*kT*kG*kT) [Compound 1075008] ?
Reply text: 61

Inquiry: What value of YAP1 (% UTC) has been recorded for this entry: 1075200 (antisense k[5mC]*kA*kT*dA*dT*dT*dA*dA*d[5mC]*dT*dA*dG*dA*kT*kG*kA) [Compound 1075200]
Reply text: 120

Inquiry: Reported YAP1 (% UTC), substance 1076352 (kG*kA*kT*dA*dA*d[5mC]*d[5mC]*d[5mC]*dT*dG*dA*dA*dA*k[5mC]*kA*kA; antisense) [Compound 1076352] : ____
Reply text: 37
